test system: SIK; conditions: concentration: 1 μM, replicates: in singlicate; n = 1;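 further: KINOMEscan kinase panel screen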
assayEndpoint: %Inh
Please append the unit to your numeric answer.

Use the examples below as a reference point.
[
  {
    "smilesNotation": "O=C(Nc1cccc(Oc2ccc3nc(NC(=O)C4CC4)cn3n2)c1)c1ccccc1C(F)(F)F",
    "%Inh": "1%"
  },
  {
    "smilesNotation": "Cn1cc(-c2ccc3c(c2)CCN3C(=O)Cc2cccc(Cl)c2)c2c(N)ncnc21",
    "%Inh": "10%"
  }
]

Turning now to a further record.
# compound Oc1cc(Nc2ccnc3cc(I)ccc23)ccc1F ; its %Inh = 29%
